Attribution: patent US20180319855A1

run-description: Thermostability: relative bioluminescence activity after 30 min incubation
Type: physicochemical
cond: 30° C. for 30 min; CLZ-f
measurement-name: Thermostability, luminescence activity relative to wt-aequorin

Find the recorded Thermostability, luminescence activity relative to wt-aequorin belonging to Q159E: apoaequorin mutant, glutamine 159 replaced by glutamic acid (SEQ ID NO:8) (protein, mutant aequorin) SKLTSDFDNPRWIGRHKHMFNFLDVNHNGKISLDEMVYKASDIVINNLGATPEQAKRHKDAVEAFFGGAGMKYGVETDWPAYIEGWKKLATDELEKYAKNEPTLIRIWGDALFDIVDKDQNGAITLDEWKAYTKAAGIIQSSEDCEETFRVCDIDESGELDVDEMTRQHLGFWYTMDPACEKLYGGAVP and report it.
0.89
